These entries and their values trace back to patent US12338203B2.

# TESTED_SYSTEM: human LPAR1 (Homo sapiens, UniProt Q92633)
# Construct: expressed in transfected cells
# Sequence (Q92633 whole entry): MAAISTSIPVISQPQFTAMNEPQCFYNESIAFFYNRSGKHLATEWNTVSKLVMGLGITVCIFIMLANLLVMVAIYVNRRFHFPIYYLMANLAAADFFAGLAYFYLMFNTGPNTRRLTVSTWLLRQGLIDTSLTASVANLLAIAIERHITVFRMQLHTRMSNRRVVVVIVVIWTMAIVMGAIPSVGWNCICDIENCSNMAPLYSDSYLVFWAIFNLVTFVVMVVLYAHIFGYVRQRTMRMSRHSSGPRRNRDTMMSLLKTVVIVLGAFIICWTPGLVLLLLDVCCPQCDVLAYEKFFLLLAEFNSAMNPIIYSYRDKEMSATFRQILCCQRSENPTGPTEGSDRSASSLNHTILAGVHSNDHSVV
# MEASUREMENT_NOTES: Test Example 1: antagonism against response of LPA-induced increase in intracellular Ca2+ concentration in RH7777 cells stably expressing human LPAR1
# Assay type: cell-based
# EXPERIMENTAL_CONDITIONS: RH7777 cells stably expressing human LPAR1; Fluo-4 fluorescence, FDSS6000; read-out: IC50 value (concentration producing 50% antagonism against response of LPA-induced increase in intracellular Ca2+ concentration) (converted)
# Procedure: (1) Preparation of RH7777 cells stably expressing human LPAR1 The human LPAR1 expression vector was transfected into RH7777 cells to acquire human LPAR1 expressing cells. […] The cells were seeded onto the Poly-D-Lysine 96 well black plate and incubated overnight. […] In FDSS6000 (Hamamatsu Photonics K.K.), LPAs were added, and the change in intracellular Ca^2+ concentration was detected using the fluorescence value of a wavelength of 540 nm by an excitation wavelength of 480 nm as an indicator. […]
Measured log10(IC50), listed per entry.
MEASURE: log10(IC50) (log10 of the value in nM)

>  <MOLECULE>
CCOc1cc([C@@H](C)N(CCOCc2ccccc2)C(=O)NC2(C(=O)O)CC(F)(F)C2)c(Cl)c(OCC)c1C(C)O (single isomer, unassigned) [Example 5-55]

>  <OBSERVED_VALUE>
0.04

$$$$
>  <MOLECULE>
CCOc1cc([C@@H](C)N(CCCCc2ccccc2)C(=O)NC2(C(=O)O)CC(F)(F)C2)cc(OCC)c1C(C)O (single isomer, unassigned) [Example 1-36]

>  <OBSERVED_VALUE>
0.02

$$$$
>  <MOLECULE>
CCOc1cc([C@@H](C)N(CCCCc2ccccc2)C(=O)NC(C(=O)O)C(C)O)cc(OCC)c1C (stereo partly drawn)

>  <OBSERVED_VALUE>
2.55

$$$$
>  <MOLECULE>
CCOc1cc([C@@H](C)N(CC2CC(c3ccccc3)C2)C(=O)NC2(C(=O)O)CC(F)(F)C2)cc(OCC)c1C (stereo partly drawn)

>  <OBSERVED_VALUE>
1.40

$$$$
>  <MOLECULE>
CCOc1cc([C@@H](C)N(CCC(F)(F)Cc2ccccc2)C(=O)NC2(C(=O)O)CCC2)cc(OCC)c1C1CC1

>  <OBSERVED_VALUE>
0.61

$$$$
>  <MOLECULE>
CCOC(=O)C1(NC(=O)N(CCO[C@@H](C)c2ccccc2)C(C)c2cc(OCC)c(C(C)=O)c(OCC)c2)CC(OCC)C1 (stereo partly drawn)

>  <OBSERVED_VALUE>
3.00

$$$$
